- TARGET: gastrin (CCK2) receptors (Rattus norvegicus, UniProt P30553)
- Construct: The stomach was excised and flushed with ca. 1 ml of unbuffered physiological saline solution; from tissue; host or cells: isolated whole stomach of immature rats (33-50 g, ca. 21 days old)
- Sequence (P30553 whole entry): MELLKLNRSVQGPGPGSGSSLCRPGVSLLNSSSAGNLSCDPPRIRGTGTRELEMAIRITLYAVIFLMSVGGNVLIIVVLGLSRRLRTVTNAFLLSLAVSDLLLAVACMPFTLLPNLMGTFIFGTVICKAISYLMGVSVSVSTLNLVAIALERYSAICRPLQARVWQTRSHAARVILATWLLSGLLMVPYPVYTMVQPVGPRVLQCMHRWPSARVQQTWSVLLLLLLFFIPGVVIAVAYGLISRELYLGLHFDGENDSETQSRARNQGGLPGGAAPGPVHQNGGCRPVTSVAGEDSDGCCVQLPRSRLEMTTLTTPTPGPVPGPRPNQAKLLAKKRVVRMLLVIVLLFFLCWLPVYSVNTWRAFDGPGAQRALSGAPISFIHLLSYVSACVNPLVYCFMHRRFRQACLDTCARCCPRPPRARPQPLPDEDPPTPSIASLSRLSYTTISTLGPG
- ASSAY_TEXT: immature rat stomach assay for gastrin (CCK2) antagonist activity (pentagastrin-stimulated acid secretion)
- TEST_PARAMETERS: isolated immature rat stomach, antagonism of pentagastrin dose-response curves, 60 min incubation; tested as N-methyl D-glucamine salts; read-out: Rat stomach pKB (converted)
RECORDED_METRIC: Kb
Answer with the number, then the unit.

Some compounds with known Kb results, for comparison:
Cc1ccc(-n2nc(COC34CC5CC(CC(C5)C3)C4)c(C(=O)Nc3cccc(C(=O)O)c3)n2)c(C)c1	316 nM
O=C(O)c1cccc(NC(=O)c2c(COC34CC5CC(CC(C5)C3)C4)nnn2C2CCCCCC2)c1	3720 nM
O=C(O)c1cccc(NC(=O)c2nn(-c3ccccc3F)nc2COC23CC4CC(CC(C4)C2)C3)c1	174 nM

Sample O=C(O)c1cccc(NC(=O)c2nn(-c3ccccc3Br)nc2COC23CC4CC(CC(C4)C2)C3)c1 — what was its Kb?
95.5 nM
